Target: BRD4 protein (Homo sapiens (Human), UniProt O60885)
Assay: BRD4 protein degradation inducing action in cancer cells (immunofluorescence, Operetta)
Assay type: cell-based
Conditions: LNCaP cells, 6 hr treatment, fluorescence intensity
quantity_kind: DC50 (nM)
Give the number; nM is assumed, so skip it.

## Input DC50 lookup needed for `COC(=O)C[C@@H]1N=C(c2ccc(-c3ccc(O[C@H]4C[C@@H](C(=O)N[C@H](C(=O)N5C[C@H](O)C[C@H]5C(=O)N[C@@H](C)c5ccc(-c6scnc6C)cc5)C(C)(C)C)C4)nc3)cc2)c2c(sc(C)c2C)-n2c(C)nnc21` , thanks.
## Output 0.3

## Input DC50 lookup needed for `COC(=O)C[C@@H]1N=C(c2ccc(-c3ccc(COCC(=O)N[C@H](C(=O)N4C[C@H](O)C[C@H]4C(=O)N[C@@H](C)c4ccc(-c5scnc5C)cc4)C(C)(C)C)cc3)cc2)c2c(sc(C)c2C)-n2c(C)nnc21` , thanks.
## Output 0.013

## Input DC50 lookup needed for `Cc1ncsc1-c1ccc([C@H](C)NC(=O)[C@@H]2C[C@@H](O)CN2C(=O)[C@@H](NC(=O)CCCCCCc2ccc(C3=N[C@@H](C)c4nnc(C)n4-c4sc(C)c(C)c43)cc2)C(C)(C)C)cc1` , thanks.
## Output 0.23

## Input DC50 lookup needed for `COC(=O)C[C@@H]1N=C(c2ccc(-c3ccc(CCC(=O)N[C@H](C(=O)N4C[C@H](O)C[C@H]4C(=O)N[C@@H](C)c4ccc(-c5scnc5C)cc4)C(C)(C)C)s3)cc2)c2c(sc(C)c2C)-n2c(C)nnc21` , thanks.
## Output 0.26

## Input DC50 lookup needed for `COC(=O)C[C@@H]1N=C(c2ccc(-c3ccc(O[C@H]4C[C@H](C(=O)N[C@H](C(=O)N5C[C@H](O)C[C@H]5C(=O)N[C@@H](C)c5ccc(-c6scnc6C)cc5)C(C)(C)C)C4)nc3)cc2)c2c(sc(C)c2C)-n2c(C)nnc21` , thanks.
## Output 0.041

## Input DC50 lookup needed for `COC(=O)C[C@@H]1N=C(c2ccc(-c3cccc(C(=O)N[C@H](C(=O)N4C[C@H](O)C[C@H]4C(=O)N[C@@H](C)c4ccc(-c5scnc5C)cc4)C(C)(C)C)c3)cc2)c2c(sc(C)c2C)-n2c(C)nnc21` , thanks.
## Output 0.74

## Input DC50 lookup needed for `Cc1ncsc1-c1ccc([C@H](C)NC(=O)[C@@H]2C[C@@H](O)CN2C(=O)[C@@H](NC(=O)COc2ccc(-c3ccc(C4=N[C@@H](C)c5nnc(C)n5-c5sc(C)c(C)c54)cc3)cc2C#N)C(C)(C)C)cc1` , thanks.
## Output 0.53

## Input DC50 lookup needed for `CNC(=O)C[C@@H]1N=C(c2ccc(-c3ccc(C(=O)N[C@H](C(=O)N4C[C@H](O)C[C@H]4C(=O)N[C@@H](C)c4ccc(-c5scnc5C)cc4)C(C)(C)C)cc3F)cc2)c2c(sc(C)c2C)-n2c(C)nnc21` , thanks.
## Output 0.73

## Input DC50 lookup needed for `Cc1ncsc1-c1ccc([C@H](C)NC(=O)[C@@H]2C[C@@H](O)CN2C(=O)[C@@H](NC(=O)c2ccc(-c3ccc(C4=N[C@@H](C)c5nnc(C)n5-c5sc6c(c54)CCC6)cc3)cc2)C(C)(C)C)cc1` , thanks.
## Output 0.66

## Input DC50 lookup needed for `COC(=O)C[C@@H]1N=C(c2ccc(-c3cc(C(=O)N[C@H](C(=O)N4C[C@H](O)C[C@H]4C(=O)N[C@@H](C)c4ccc(-c5scnc5C)cc4)C(C)(C)C)cc(F)c3F)cc2)c2c(sc(C)c2C)-n2c(C)nnc21` , thanks.
## Output 0.53

## Input DC50 lookup needed for `Cc1ncsc1-c1ccc([C@H](C)NC(=O)[C@@H]2C[C@@H](O)CN2C(=O)[C@@H](NC(=O)CCCCc2ccc(C3=N[C@@H](C)c4nnc(C)n4-c4sc(C)c(C)c43)cc2)C(C)(C)C)cc1` , thanks.
## Output 0.77

## Input DC50 lookup needed for `COC(=O)C[C@@H]1N=C(c2ccc(-c3ccc4oc(C(=O)N[C@H](C(=O)N5C[C@H](O)C[C@H]5C(=O)N[C@@H](C)c5ccc(-c6scnc6C)cc5)C(C)(C)C)nc4c3)cc2)c2c(sc(C)c2C)-n2c(C)nnc21` , thanks.
## Output 0.052

## Input DC50 lookup needed for `Cc1ncsc1-c1ccc([C@H](C)NC(=O)[C@@H]2C[C@@H](O)CN2C(=O)[C@@H](NC(=O)C#Cc2ccc(C3=N[C@@H](C)c4nnc(C)n4-c4sc(C)c(C)c43)cc2)C(C)(C)C)cc1` , thanks.
## Output 0.058

## Input DC50 lookup needed for `COC(=O)C[C@@H]1N=C(c2ccc(-c3ccccc3OCC(=O)N[C@H](C(=O)N3C[C@H](O)C[C@H]3C(=O)N[C@@H](C)c3ccc(-c4scnc4C)cc3)C(C)(C)C)cc2)c2c(sc(C)c2C)-n2c(C)nnc21` , thanks.
## Output 0.8

## Input DC50 lookup needed for `COC(=O)C[C@@H]1N=C(c2ccc(-c3ccc(C(=O)N[C@H](C(=O)N4C[C@H](O)C[C@H]4C(=O)N[C@@H](C)c4ccc(-c5scnc5C)cc4)C(C)(C)C)c(F)c3)cc2)c2c(sc(C)c2C)-n2c(C)nnc21` , thanks.
## Output 0.64

## Input DC50 lookup needed for `Cc1ncsc1-c1ccc([C@H](C)NC(=O)[C@@H]2C[C@@H](O)CN2C(=O)[C@@H](NC(=O)c2ccc(-c3ccc(C4=N[C@@H](CC(=O)N(C)C)c5nnc(C)n5-c5sc(C)c(C)c54)cc3)c(F)c2)C(C)(C)C)cc1` , thanks.
## Output 0.62

## Input DC50 lookup needed for `COC(=O)C[C@@H]1N=C(c2ccc(-c3cc(C(=O)N[C@H](C(=O)N4C[C@H](O)C[C@H]4C(=O)N[C@@H](C)c4ccc(-c5scnc5C)cc4)C(C)(C)C)ccc3F)cc2)c2c(sc(C)c2C)-n2c(C)nnc21` , thanks.
## Output 0.6
